Method Notes: growth inhibition of non-replicating M. tuberculosis (AID 488890);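 further: plate controls were DMSO cells for no effect and high antibiotic wells for full effect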
Setup Conditions: Mycobacterium tuberculosis non-replicating, at 25 µM, stronger effect = higher value
In all, about 320,000 compounds went through this assay and about 1,300 (0.41%) were called active. Inconclusive results (about 3%) are left out. Not all results are given here. Entries with a potency or affinity are not part of this list.
Recorded Endpoint: inhibition (%)
Express it in %; write the number only.

Lab note: Cc1cccc(NC(=O)c2c(O)c3ccccc3n(C)c2=O)c1 gave inhibition of 13.4

The molecule listed as COc1ccc(NC(=O)CCC(=O)c2cccs2)c(OC)c1 shows inhibition equal to -6.26

So for COC(=O)C1=C(C(=O)OC)[C@@H]2N(Cc3ccccc3)c3ccccc3[C@@]23C[C@@H](C(=O)OC)N(C(=O)c2cccs2)C3=N1 , the logged inhibition turned out to be 21.8

Reported inhibition ( CCN(CC(=O)NCc1ccc(F)cc1)C(=O)COc1ccc(C)c(C)c1 ) = 28.3

Quick note, inhibition for O=[N+]([O-])c1ccc2nc(SCc3cn4cccnc4n3)[nH]c2c1 landed at -20.2

Notebook: Cc1ccc(OCCNC(=O)c2cccc(C)c2)cc1 , inhibition read as 49.8

// field: inhibition; key: Cn1c(-c2ccc(Cl)cc2)cnc1N ; value = 52.6

For record CCCCn1c(N)c(N(CCOC)C(=O)c2sc3cc(F)ccc3c2Cl)c(=O)[nH]c1=O the listed inhibition is -5.03

GET /value?item= O=C(CNCc1ccco1)Nc1ccccc1-n1cccc1 &field=inhibition returns 5.71

// NC(=O)CSc1nc2ccc([N+](=O)[O-])cc2[nH]1 : inhibition value = 3.31

Note to self: inhibition recorded for COc1ccc(OC)c(C(=O)COC(=O)c2ccccc2O)c1 was 51.8

The reported inhibition of the molecule Fc1ccc2c(c1)C(c1ccncc1)=NNC(c1ccc(Br)cc1)=N2 was 21.1
